Origin of values: patent US6046310

target-of-assay: Fas on the cell surface of human cell lines (MOLT-4, CESS, T47D) (human, UniProt P25445)
measurement-protocol: cell-based or functional assay
test-readout: % apoptotic cells, T47D (% apoptotic cells)
# number only, unit % apoptotic cells dropped from output

As a guide, the following entries are already answered.
HuABL364 Ig-FasL5 I168A (other) heavy (part 1 of 2): EVQLLESGGGLVQPGGSLRLSCAASGFTFSDYYMYWVRQAPEKRLEWVAYISNGGGSSHYVDSVKGRFTISRDNAKNTLYLQMNSLRAEDTALYHCARGMDYGAWFAYWGQGTLVTVSS heavy (part 2 of 2): GTGHPSPPPEKKELRKVAHLTGKSNSRSMPLEWEDTYGAVLLSGVKYKKGGLVINETGLYFVYSKVYFRGQSCNNLPLSHKVYMRNSKYPQDLVMMEGKMMSYCTTGQMWARSSYLGAVFNLTSADHLYVNVSELSLVNFEESQTFFGLYKL light: DIVMTQSPLSLPVTPGEPASISCRSSQSIVHSNGNTYLEWYLQKPGQSPQLLISKVSNRFSGVPDRFSGSGSGTDFTLKISRVEAEDVGVYYCFQGSHVPFTFGQGTKLEIK: 91
HuABL364 Ig-FasL5 Y244A (other) heavy (part 1 of 2): EVQLLESGGGLVQPGGSLRLSCAASGFTFSDYYMYWVRQAPEKRLEWVAYISNGGGSSHYVDSVKGRFTISRDNAKNTLYLQMNSLRAEDTALYHCARGMDYGAWFAYWGQGTLVTVSS heavy (part 2 of 2): GTGHPSPPPEKKELRKVAHLTGKSNSRSMPLEWEDTYGIVLLSGVKYKKGGLVINETGLYFVYSKVYFRGQSCNNLPLSHKVYMRNSKYPQDLVMMEGKMMSYCTTGQMWARSSALGAVFNLTSADHLYVNVSELSLVNFEESQTFFGLYKL light: DIVMTQSPLSLPVTPGEPASISCRSSQSIVHSNGNTYLEWYLQKPGQSPQLLISKVSNRFSGVPDRFSGSGSGTDFTLKISRVEAEDVGVYYCFQGSHVPFTFGQGTKLEIK: 16
HuABL364 Ig-FasL5 Y189A (other) heavy (part 1 of 2): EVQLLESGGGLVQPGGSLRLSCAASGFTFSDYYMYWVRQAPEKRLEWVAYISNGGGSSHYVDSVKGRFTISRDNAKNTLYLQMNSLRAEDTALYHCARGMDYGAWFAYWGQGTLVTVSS heavy (part 2 of 2): GTGHPSPPPEKKELRKVAHLTGKSNSRSMPLEWEDTYGIVLLSGVKYKKGGLVINETGLAFVYSKVYFRGQSCNNLPLSHKVYMRNSKYPQDLVMMEGKMMSYCTTGQMWARSSYLGAVFNLTSADHLYVNVSELSLVNFEESQTFFGLYKL light: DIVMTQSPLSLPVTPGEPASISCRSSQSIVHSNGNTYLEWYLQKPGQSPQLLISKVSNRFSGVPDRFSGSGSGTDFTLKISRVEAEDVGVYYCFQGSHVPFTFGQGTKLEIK: 11

Request: State its % apoptotic cells, T47D: HuABL364 Ig-FasL5 L170A (other) heavy (part 1 of 2): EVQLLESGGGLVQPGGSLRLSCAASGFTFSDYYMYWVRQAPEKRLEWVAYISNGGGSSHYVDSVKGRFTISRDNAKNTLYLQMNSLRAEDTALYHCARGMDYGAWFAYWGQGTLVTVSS heavy (part 2 of 2): GTGHPSPPPEKKELRKVAHLTGKSNSRSMPLEWEDTYGIVALSGVKYKKGGLVINETGLYFVYSKVYFRGQSCNNLPLSHKVYMRNSKYPQDLVMMEGKMMSYCTTGQMWARSSYLGAVFNLTSADHLYVNVSELSLVNFEESQTFFGLYKL light: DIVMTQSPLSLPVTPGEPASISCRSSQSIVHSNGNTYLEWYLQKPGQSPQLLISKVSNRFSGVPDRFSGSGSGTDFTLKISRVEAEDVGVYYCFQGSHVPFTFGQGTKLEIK
Result: 98

Request: Dear colleague, please send me the reported % apoptotic cells, T47D for HuABL364 Ig-FasL5 M229A (other) heavy (part 1 of 2): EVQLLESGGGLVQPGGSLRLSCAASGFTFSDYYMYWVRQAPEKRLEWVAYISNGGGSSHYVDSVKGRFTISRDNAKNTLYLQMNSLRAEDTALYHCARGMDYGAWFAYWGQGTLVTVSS heavy (part 2 of 2): GTGHPSPPPEKKELRKVAHLTGKSNSRSMPLEWEDTYGIVLLSGVKYKKGGLVINETGLYFVYSKVYFRGQSCNNLPLSHKVYMRNSKYPQDLVMMEGKAMSYCTTGQMWARSSYLGAVFNLTSADHLYVNVSELSLVNFEESQTFFGLYKL light: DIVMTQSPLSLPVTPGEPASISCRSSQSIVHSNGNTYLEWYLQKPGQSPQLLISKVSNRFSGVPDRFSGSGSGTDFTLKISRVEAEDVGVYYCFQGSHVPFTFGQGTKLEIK when you can.
Result: 95
